biological target: CCR2 (Homo sapiens, UniProt P41597); experiment: MCP-1 Receptor Binding Assay in THP-1 Cells; conditions: 0.5 nM 125I labeled MCP-1, 2 hours at 30° C., read-out: Inhibition of MCP-1 Binding IC50 CCR2 Binding
Sequence (P41597 1-360 isoform P41597-2): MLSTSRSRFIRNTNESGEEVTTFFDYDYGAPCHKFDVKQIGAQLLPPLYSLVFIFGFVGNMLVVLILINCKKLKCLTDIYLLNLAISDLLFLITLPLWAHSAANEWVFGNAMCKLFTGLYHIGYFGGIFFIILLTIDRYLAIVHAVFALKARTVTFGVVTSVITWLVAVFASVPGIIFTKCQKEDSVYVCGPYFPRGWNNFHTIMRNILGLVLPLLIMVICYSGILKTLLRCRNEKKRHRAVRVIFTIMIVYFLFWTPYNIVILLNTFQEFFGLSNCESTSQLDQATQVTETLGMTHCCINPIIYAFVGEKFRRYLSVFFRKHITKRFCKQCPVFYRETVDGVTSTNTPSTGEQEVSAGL
pIC50: −log10 of the molar value.
Recorded pIC50 values for a group of compounds are listed next.
Measurement name: pIC50

{"Compound": "N#Cc1ccc(C2CCC(N3CC(NC(=O)CNC(=O)c4cccc(C(F)(F)F)c4)C3)CC2)cc1 (centres unmarked)", "Obs value": 7.07}
{"Compound": "Cc1ccc(C2(O)CCC(N3CC(NC(=O)CNC(=O)c4cccc(C(F)(F)F)c4)C3)CC2)cc1 (centres unmarked)", "Obs value": 7.00}
{"Compound": "CN(C)CCOc1ccc(C2CCC(N3CC(NC(=O)CNC(=O)c4cccc(C(F)(F)F)c4)C3)CC2)cc1 (centres unmarked)", "Obs value": 6.80}
{"Compound": "COc1cccc(C2(O)CCC(N3CC(NC(=O)CNC(=O)c4cccc(C(F)(F)F)c4)C3)CC2)c1 (single isomer, unassigned) [Example 37a]", "Obs value": 7.16}
{"Compound": "CCOC(=O)c1cccc(C2CCC(N3CC(NC(=O)CNC(=O)c4cccc(C(F)(F)F)c4)C3)CC2)c1 (single isomer, unassigned) [Example 11a]", "Obs value": 6.87}

Data origin, for the record: patent US8513229B2
